Tested on: CP286
Run Description: qHTS profiling for inhibitors of Plasmodium falciparum proliferation (AID 504749); note: nearly all actives have a fitted effect of over 60% in size
Experimental Context: P. falciparum in erythrocytes, SYBR Green DNA, 72 h; series mostly up to 28.7 µM
Results filed as inconclusive are left out. The source made the active and inactive calls. Calls come from the whole dose curve; as a rule, active = well fitted inhibition curve with a large enough effect; inconclusive = small, poorly fitted or top-dose-only effect; inactive = flat fitted curve, though single readings scatter.
Allowed answers: T for active, F for inactive

Which outcome was entered for the compound CNC1CCc2cc(OC)c(OC)c(OC)c2-c2ccc(OC)c(=O)cc21 (centres undefined) in this test?
F

Can you look up the reported call for O=C1[C@@H]2C[C@@H]3C[C@H]1C[C@@](O)(C3)C2 for me?
F

Entry NC(=O)c1ncn(C2OC(CO)C(O)C2O)c1N (centres undefined) : call = ?
F

Hey, what did the test say about CC1(C)OC[C@@H]2O[C@@]3(C(=O)O)OC(C)(C)O[C@@H]3[C@@H]2O1 ?
F

How did this test come out for CO/N=C(/C(=O)N[C@@H]1C(=O)N2C(C(=O)O)=C(CSc3nc(C)c(CC(=O)O)s3)CS[C@H]12)c1csc(N)n1 ?
F

What call does the record list for C[C@H](CN1c2ccccc2Sc2cccnc21)N(C)C ?
T

Hello, I am checking results. What call was entered for COC(=O)C1[C@@H](OC)C(OC(=O)COc2ccc(OC)cc2)C[C@@H]2CN3CCc4c([nH]c5cc(OC)ccc45)[C@H]3C[C@H]12 (some centres undefined) ?
T

Would you mind telling me which call this test gave Clc1ccc(CS[C@@H](Cn2ccnc2)c2ccc(Cl)cc2Cl)cc1 ?
T

Fill in: this test's call for C#C[C@@]1(O)CC[C@@H]2[C@H]3CCC4=C/C(=N\O)CC[C@H]4[C@@H]3CC[C@]21CC is ___
F

====

For each entry below, report its max response value.
Run Description: qHTS assay for cell viability of HEK293 cells (AID 743288); note: % is set by controls: 0 for no effect and ±100 for the full control effect; nearly all actives have a fitted effect of over 50% in size
Experimental Context: ATP luminescence (CellTiter-Glo), 18 h; active compounds read low
Inconclusive results are not listed.
Just the number in %, nothing appended.

GET /values?readout=max response&item= Nc1ccc2cc3ccccc3cc2c1
-16.2

Form field: reported max response of CC1CCC(C(C)C)C(O)C1 (centres undefined)
-1.68

Consider the compound shown here: O=C(OCC(COC(=O)c1ccccc1)(COC(=O)c1ccccc1)COC(=O)c1ccccc1)c1ccccc1 What is its recorded max response?
-3

Reported max response for CCCCCC/C(C=O)=C\c1ccccc1 : what is it?
-1.93

====

Test system: CP194
Run Description: qHTS profiling for inhibitors of Plasmodium falciparum proliferation (AID 504749); note: nearly all actives have a fitted effect of over 60% in size
Experimental Context: P. falciparum in erythrocytes, SYBR Green DNA, 72 h; series mostly up to 28.7 µM
Results filed as inconclusive are left out. Activity calls are given as the source filed them. The call rests on the fitted dose curve; in most records, active means well fitted inhibition curve with a large enough effect; inconclusive means small, poorly fitted or top-dose-only effect; inactive means flat fitted curve, though single readings scatter.
Tick one outcome: true for active, false for inactive

Just curious, what result did NC(=O)NC(CCC(=O)O)C(=O)O (stereo not given) get here?
false

What classification did CC1CCC(O)C/C1=C\C=C1/CCCC2(C)C1CCC2C(C)/C=C/C(C)C(C)C (stereo not given) end up with in this test?
false

For this compound, state the assay outcome: CCCCCCCCCCCC(=O)OCC(O)C1OCC(O)C1O (stereo not given)
false

Call for entry COc1cccc2c1C(=O)c1c(O)c3c(c(O)c1C2=O)C[C@@](O)(C(=O)CO)C[C@@H]3OC1CC(N)C(O)C(C)O1 (stereo not given in full) :
true

Look up the recorded call for C=C[C@H]1CN2CCC1C[C@H]2[C@H](O)c1ccnc2ccc(OC)cc12 (stereo not given in full) in this test.
true
